test system: Cystic fibrosis transmembrane conductance regulator (Homo sapiens), P13569 [F508del]; experiment: Activity at CFTR F508 deletion mutant expressed in forskolin-stimulated FRT cells assessed as maximal increase in iodine influx measured as YFP quenching rate after 24 hrs by fluorescence assay; format: cell-based
Sequence (P13569 as listed by the source): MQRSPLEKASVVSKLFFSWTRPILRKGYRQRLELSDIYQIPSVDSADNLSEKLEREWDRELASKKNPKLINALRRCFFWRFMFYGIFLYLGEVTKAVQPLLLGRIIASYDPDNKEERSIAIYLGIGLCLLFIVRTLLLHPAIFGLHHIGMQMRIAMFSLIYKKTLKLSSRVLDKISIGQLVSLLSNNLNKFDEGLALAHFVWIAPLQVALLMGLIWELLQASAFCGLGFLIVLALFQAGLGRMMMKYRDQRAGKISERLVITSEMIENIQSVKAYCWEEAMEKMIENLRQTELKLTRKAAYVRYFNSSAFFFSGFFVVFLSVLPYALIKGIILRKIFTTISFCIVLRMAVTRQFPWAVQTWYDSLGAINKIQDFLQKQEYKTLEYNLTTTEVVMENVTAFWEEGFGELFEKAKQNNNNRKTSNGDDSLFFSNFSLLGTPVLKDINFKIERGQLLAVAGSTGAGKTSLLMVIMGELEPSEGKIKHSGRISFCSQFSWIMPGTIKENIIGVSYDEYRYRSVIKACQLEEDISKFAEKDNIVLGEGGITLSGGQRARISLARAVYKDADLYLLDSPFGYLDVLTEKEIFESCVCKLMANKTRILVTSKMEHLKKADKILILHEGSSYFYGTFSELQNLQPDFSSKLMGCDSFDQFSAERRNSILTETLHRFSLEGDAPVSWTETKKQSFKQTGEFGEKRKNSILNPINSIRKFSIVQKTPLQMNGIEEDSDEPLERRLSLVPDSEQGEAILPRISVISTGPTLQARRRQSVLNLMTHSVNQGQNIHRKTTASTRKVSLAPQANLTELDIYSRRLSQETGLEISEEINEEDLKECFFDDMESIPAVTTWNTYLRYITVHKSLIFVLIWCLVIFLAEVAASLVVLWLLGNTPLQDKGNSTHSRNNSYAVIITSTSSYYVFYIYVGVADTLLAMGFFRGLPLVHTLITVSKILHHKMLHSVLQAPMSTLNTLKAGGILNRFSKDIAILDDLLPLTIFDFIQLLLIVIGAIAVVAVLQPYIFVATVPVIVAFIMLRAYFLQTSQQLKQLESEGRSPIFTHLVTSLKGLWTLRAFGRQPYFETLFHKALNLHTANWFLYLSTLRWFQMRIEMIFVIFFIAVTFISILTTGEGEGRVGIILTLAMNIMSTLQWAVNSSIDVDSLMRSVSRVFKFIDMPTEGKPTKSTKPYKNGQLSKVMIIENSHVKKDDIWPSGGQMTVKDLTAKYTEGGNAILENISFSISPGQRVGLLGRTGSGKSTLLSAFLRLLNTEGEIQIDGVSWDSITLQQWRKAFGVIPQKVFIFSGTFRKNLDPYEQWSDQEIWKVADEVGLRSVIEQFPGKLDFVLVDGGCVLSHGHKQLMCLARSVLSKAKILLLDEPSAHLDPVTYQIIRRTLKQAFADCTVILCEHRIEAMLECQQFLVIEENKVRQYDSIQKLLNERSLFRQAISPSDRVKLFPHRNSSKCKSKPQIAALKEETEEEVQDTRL
Experimental Endpoint: Emax (ms-1)
Give a bare numeral; the unit ms-1 is implied.

Query block: # get_value(readout= Emax, system= Cystic fibrosis transmembrane conductance regulator (Homo sapiens), P13569 [F508del]) for COC(=O)C1=C(C)NC(C)=C(C(=O)OC)C1c1c(-c2cccc(OC(F)(F)F)c2)nc2sccn12
Result block: 64

---

Emax: recorded values
system: Cystic fibrosis transmembrane conductance regulator (Homo sapiens), P13569 [F508del]; assay: Activity at CFTR F508 deletion mutant expressed in forskolin-stimulated FRT cells assessed as maximal increase in iodine influx measured as YFP quenching rate after 24 hrs by fluorescence assay; assay type: cell-based
Numeric answer only, unit ms-1 assumed.

Consider the following illustrative entries.
C=CCOC(=O)C1=C(C)NC(C)=C(C(=O)OCC=C)C1/C=C/c1ccccc1OC | 59
COC(=O)C1=C(C)NC(C)=C(C(=O)OC)C1c1c(C)nc2sc(Cl)cn12 | 60
COC(=O)C1=C(C)NC(C)=C(C(=O)OC)C1c1c(Cl)nc2scc(C)n12 | 60

# context switch: different molecule, same Emax
Query block: What is its Emax for Cystic fibrosis transmembrane conductance regulator (Homo sapiens), P13569 [F508del]? Entry: COC(=O)C1=C(C)NC(C)=C(C(=O)OC)C1c1c(Cl)nc2sc(C)c(C)n12
Result block: 60
